# Test system: RPMI-8226
# protocol text: NCI tumour cell line growth inhibition, 48 h
Calls of active or inactive are those of the source. Cut-off read from the data, not from the text of the source: active = GI50 up to about 1.1 µM and inactive = higher. Square brackets hold non-standard residues; d marks the D form. Peptide text beside a SMILES is read from it. ξ: configuration not given here. ξ2Thi = NC(Cc1cccs1)C(=O)O; ξR = N=C(N)NCCCC(N)C(=O)O; ξI = CCC(C)C(N)C(=O)O; ξL = CC(C)CC(N)C(=O)O; ξK = NCCCCC(N)C(=O)O; ξT = CC(O)C(N)C(=O)O; ξA = CC(N)C(=O)O
Thanks in advance; please answer with one of these: true (1) = active, false (0) = inactive

Solved cases below.
CCOC1NC(=O)c2ccccc21 (configuration not stated)	false (0)
CC1=NN(c2ccccc2)C(=O)/C1=C1\SC(c2ccccc2)(c2ccccc2)c2ccccc21	false (0)
CC(=O)Nc1ccc2nc(-c3cccc(Cl)c3)cc(O)c2c1	false (0)

Could you kindly confirm the outcome this assay logged for O[C@@]1(C#Cc2ccc3c(c2)OCO3)CCC[C@H]1NCc1ccccc1 ? false (0)

Moving on to CC1OC(OC2C(O[C@H]3CC[C@@]4(C)C(=CC[C@H]5[C@@H]6C[C@@H]7O[C@]8(CC[C@@H](C)CO8)[C@@H](C)[C@@H]7[C@@]6(C)CC[C@@H]54)C3)OC(CO)C(OC3OC(CO)C(O)C3O)C2O)C(O)C(O)C1O (some centres not stated) true (1)

Moving on to Nc1nc(-c2ccco2)cc(-c2ccco2)n1 false (0)

Moving on to CCC(C)C(NC(=O)C(Cc1cccs1)NC(=O)C(CC(C)C)NC(=O)C(CC(C)C)NC(=O)C(CCCCN)NC(=O)C(CCCN=C(N)N)NC(=O)[C@H](Cc1ccc(O)cc1)NC(=O)C(NC(=O)C(C)NC(=O)C(N)CC(C)C)C(C)O)C(=O)NC(CC(C)C)C(N)=O (some centres not stated) (H-[ξL][ξA][ξT]Y[ξR][ξK][ξL][ξL][ξ2Thi][ξI][ξL]-NH2) false (0)

Origin of values: ChEMBL document CHEMBL1201862
